Biological target: Serine/threonine-protein kinase SIK1 (Homo sapiens, UniProt P57059)
Sequence (P57059 whole entry): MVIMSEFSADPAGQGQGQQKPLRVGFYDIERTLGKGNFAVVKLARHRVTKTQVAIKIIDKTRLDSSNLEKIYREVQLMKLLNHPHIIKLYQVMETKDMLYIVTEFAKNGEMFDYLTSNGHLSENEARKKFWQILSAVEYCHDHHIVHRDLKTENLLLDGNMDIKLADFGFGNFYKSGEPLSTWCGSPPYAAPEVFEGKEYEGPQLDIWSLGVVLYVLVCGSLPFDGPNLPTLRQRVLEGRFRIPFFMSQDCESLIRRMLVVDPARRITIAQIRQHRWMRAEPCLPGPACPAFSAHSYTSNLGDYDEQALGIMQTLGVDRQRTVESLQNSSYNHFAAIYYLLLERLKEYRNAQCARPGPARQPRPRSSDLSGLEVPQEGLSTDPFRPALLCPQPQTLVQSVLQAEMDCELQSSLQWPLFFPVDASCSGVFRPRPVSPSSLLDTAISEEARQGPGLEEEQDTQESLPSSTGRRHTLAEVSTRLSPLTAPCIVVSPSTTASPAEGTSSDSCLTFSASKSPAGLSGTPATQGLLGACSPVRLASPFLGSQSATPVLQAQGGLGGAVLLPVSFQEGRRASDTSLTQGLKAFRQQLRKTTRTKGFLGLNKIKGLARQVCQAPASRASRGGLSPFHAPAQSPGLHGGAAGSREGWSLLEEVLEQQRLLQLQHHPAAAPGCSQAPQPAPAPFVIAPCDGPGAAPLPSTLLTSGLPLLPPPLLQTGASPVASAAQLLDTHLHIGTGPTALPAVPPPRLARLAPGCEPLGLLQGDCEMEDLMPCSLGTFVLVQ
property measured: IC50 (µM)
Write the number in µM without appending the unit.

[ask] State its IC50 on Serine/threonine-protein kinase SIK1 (Homo sapiens, UniProt P57059): "CC(=O)c1ccc(-n2cnc3cc(N(C)c4ccc(C)nn4)ncc32)nc1-n1nc(C#N)cc1C"
[reply] 19
